- testDescription: Stability test of BTG 1640 salts: purity under preservation conditions
- Format: physicochemical
- testContext: T = 40° C., humidity 75% RH; time 3 (months)
- Experimental: Samples of 100 mg each of BTG 1640 hydrochloride were subjected to the following preservation conditions: The purities were then analyzed periodically, initially every three months, in order to underline possible variations. […] Quarterly and in an overall period of nine months its purity was then analyzed in order to underline possible variations. […] The stabilities were then evaluated by subjecting samples of 100 mg of each salt to the following analogous preservation conditions: […]
Structures can show the parent of a compound that is named as a salt.
endpointLabel: Purity % (%)
Please give a number only; it is taken to be in %.

molecule	unitString	measuredValue
CN1OC2CCCC(=O)C2C1Cc1ccccc1 (centres unmarked) [BTG 1640 fumarate]	%	100.0
CN1OC2CCCC(=O)C2C1Cc1ccccc1.O=C(O)/C=C\C(=O)O (centres unmarked) [BTG 1640 maleate]	%	24.4
CN1OC2CCCC(=O)C2C1Cc1ccccc1.O=C(O)CCC(=O)O (centres unmarked) [BTG 1640 succinate]	%	16.5

-- ask # Purity % lookup, item CN1OC2CCCC(=O)C2C1Cc1ccccc1.Cl (centres unmarked) [BTG 1640 hydrochloride]
-- reply 93.4

-- ask # Purity % lookup, item CN1OC2CCCC(=O)C2C1Cc1ccccc1.CS(=O)(=O)O (centres unmarked) [BTG 1640 methanesulphonate]
-- reply 81.5

----------
- testDescription: Absorption kinetic: plasma concentration of BTG 1640 after oral gavage
- Assay type: in vivo, rats Sprague Dawley
- testContext: Sprague Dawley, rat, in vivo, po, 10 mg/kg
Structures can show the parent of a compound that is named as a salt.
endpointLabel: concentration at 300 min
Param answer (str): number followed by unit.

-- ask # concentration at 300 min lookup, item CN1OC2CCCC(=O)C2C1Cc1ccccc1 (stereo not shown) [BTG 1640 fumarate]
-- reply 0 ng/mL

----------
Quick reference: % impurities of the listed items.
- testDescription: Stability test of BTG 1640 salts: evaluation of total impurities
- Format: physicochemical
- testContext: T = 30° C., humidity 65% RH; time 6 (months)
- Experimental: Contemporaneously, the impurity analysis in the conditions a)-d) of T/% RH were carried out. As a confirmation of such evidence, a test for the evaluation of the impurity percentage of the sample subjected to the same conditions a)-d) of T/% RH was parallely carried out. The experimental values in Table 4 were obtained.
Counter-ions that a name gives are not always drawn.
Please give a number only; it is taken to be in %.

compound	unitString	measuredValue
CN1OC2CCCC(=O)C2C1Cc1ccccc1.CS(=O)(=O)O (centres unmarked) [BTG 1640 methanesulphonate]	%	13.20
CN1OC2CCCC(=O)C2C1Cc1ccccc1.Cl (centres unmarked) [BTG 1640 hydrochloride]	%	0.52
CN1OC2CCCC(=O)C2C1Cc1ccccc1 (centres unmarked) [BTG 1640 fumarate]	%	0.10
CN1OC2CCCC(=O)C2C1Cc1ccccc1.O=C(O)CCC(=O)O (centres unmarked) [BTG 1640 succinate]	%	28.50

-- ask # % impurities lookup, item CN1OC2CCCC(=O)C2C1Cc1ccccc1.O=C(O)/C=C\C(=O)O (centres unmarked) [BTG 1640 maleate]
-- reply 1.10

----------
- testDescription: Stability test of BTG 1640 salts: evaluation of total impurities
- Assay type: physicochemical
- testContext: T = 25° C., humidity 60% RH; time 6 (months)
Counter-ions that a name gives are not always drawn.
endpointLabel: % impurities (%)
Please give a number only; it is taken to be in %.

Some entries whose results are on file:
molecule	unitString	% impurities
CN1OC2CCCC(=O)C2C1Cc1ccccc1.Cl (centres unmarked) [BTG 1640 hydrochloride]	%	0.87
CN1OC2CCCC(=O)C2C1Cc1ccccc1 (centres unmarked) [BTG 1640 fumarate]	%	0.10
CN1OC2CCCC(=O)C2C1Cc1ccccc1.O=C(O)/C=C\C(=O)O (centres unmarked) [BTG 1640 maleate]	%	0.10
CN1OC2CCCC(=O)C2C1Cc1ccccc1.O=C(O)CCC(=O)O (centres unmarked) [BTG 1640 succinate]	%	13.00

Here's the next entry for you.
-- ask # % impurities lookup, item CN1OC2CCCC(=O)C2C1Cc1ccccc1.CS(=O)(=O)O (centres unmarked) [BTG 1640 methanesulphonate]
-- reply 2.90

The origin of these recorded values is patent US20100069450A1.
